# Test system: DU145
# experiment: MTS cytotoxicity test, DU145
# Assay type: cell-based
# experimentalConditions: 96 h, read-out: IC50 value in human tumor cells
# Method: Containing 10% bovine fetal serum, 1 mM of sodium pyruvate, 2 mM of L-glutamine, 50 U/mL of penicillin, 50 μg/mL of streptomycin […] MTS test method was used in cytotoxicity assay. […] Each condition was measured in five replicates. […] Before detecting the absorbance value (OD), to each sample containing well was added 100 μL of cell culture medium, then 20 μL of MTS working reagent was added. After incubation at 37° C. with 5% CO2 for 2 h, the OD (optical density) value was detected at 490 nm. […]
What pIC50 was measured for each of the following?
// pIC50: -log10(molar conc.)

Memo: O=C1[O][Pt]2([NH]C3CCCCC3[NH]2)[O]C(=O)C1(F)CCCOC1OC(CO)C(O)C(O)C1O (stereo not drawn) [Complex 9] , reported pIC50: 5.15

Memo: O=C1[O][Pt]2([NH][C@@H]3CCCC[C@H]3[NH]2)[O]C(=O)C1(F)CCOC1O[C@H](CO)[C@@H](O)[C@H](O)[C@H]1O (stereo partly drawn) [Complex 2] , reported pIC50: 5.31

Memo: O=C1[O][Pt]2([NH][C@@H]3CCCC[C@H]3[NH]2)[O]C(=O)C1(F)CCCOC1O[C@H](CO)[C@@H](O)[C@H](O)[C@H]1O (stereo partly drawn) [Complex 3] , reported pIC50: 5.18

Memo: O=C1[O][Pt]2([NH]C3CCCCC3[NH]2)[O]C(=O)C1(F)CCCOC1OC(CO)C(O)C(O)C1O (stereo not drawn) [Complex 6] , reported pIC50: 5.00

Memo: O=C1[O][Pt]2([NH]C3CCCCC3[NH]2)[O]C(=O)C1(F)CCOC1OC(CO)C(O)C(O)C1O (stereo not drawn) [Complex 8] , reported pIC50: 5.29

Memo: O=C1[O][Pt]2([NH]C3CCCCC3[NH]2)[O]C(=O)C1(F)CCOC1OC(CO)C(O)C(O)C1O (stereo not drawn) [Complex 5] , reported pIC50: 5.58
